Every entry's value here was drawn from PubChem BioAssay AID463173.

For each record, write down the corresponding survival.
System: Wild type
Assay: S. aureus survival, RN4220 and DeltatarO strains – OD600, teichoic acid synthesis inhibitors, primary screen (AID 463173)
Conditions: S. aureus RN4220 wild type/DeltatarO growth, OD600, 18 h, hits give low values, screened at 18.75 µg/mL (by protocol)
Screen size: about 52,000 compounds; about 1,700 (3.3%) were called active. What follows is part of a selection rich in actives, with near analogues and random picks from the rest.
Output spec: scalar in %, unitless text.

Ask | Find the recorded survival belonging to `COc1ccc(F)cc1S(=O)(=O)Nc1cccc(-c2ccc(N3CCC(C)CC3)nn2)c1` and report it.
Reply | 129

Ask | Entry `COc1ccc(-c2nc3ccccc3o2)cc1NC(=O)c1ccc(-c2ccc(C)c(Cl)c2)o1` please
Reply | 73

Ask | Also need `Cc1ccc(Nc2c(-c3ccc(C)o3)nc3cccc(C)n23)cc1` , thanks.
Reply | 21

Ask | What about this compound? `COc1ccccc1N1CCN(C(=O)CCn2cnc3onc(-c4ccc(F)cc4)c3c2=O)CC1`
Reply | 87

Ask | Follow-up item: `Cc1ccc(/C=C/c2nc3ccccc3n2S(=O)(=O)c2ccc(Br)cc2)cc1`
Reply | 70

Ask | Next compound: `COc1ccc(-c2nc3cc(C(C)C)ccc3o2)cc1NC(=O)COc1ccc(C)cc1C`
Reply | 59

Ask | Try this compound next: `CC1CCN(C(=O)CS(=O)(=O)Cc2ccccc2)CC1`
Reply | 102

Ask | Also, `COc1ccc(C)cc1S(=O)(=O)Nc1cccc(-c2ccc(N3CCC(C)CC3)nn2)c1` please.
Reply | -4

Ask | Now consider CC(=O)NC1N=C(C)N(c2ccccc2)C1=O (stereo unspecified) .
Reply | 101

Ask | Queued: `O=C1NC(=Nc2ccccc2)S/C1=C\c1ccc(C(=O)O)cc1`
Reply | 113

Ask | Then what about the compound `CCOC(=O)c1c(NC(=O)c2ccc(OC)c(OC)c2)sc2c1CCCCC2` ?
Reply | 69

Ask | Let us now turn to `CCOC(=O)c1c(NC(=O)c2ccc(C)cc2)sc2c1CCCCC2`
Reply | -1

Ask | Check `Cc1ccc(-c2nc3cc(Cl)ccc3o2)cc1NC(=O)c1cc2ccccc2o1` too.
Reply | 72

Ask | # iterate: `O=C(CCn1cnc2onc(-c3ccc(F)cc3)c2c1=O)N1CCN(c2ccc(F)cc2)CC1`
Reply | 98

Ask | Next record, please: `CCn1c(CC(=O)Nc2ccccc2)n[nH]c1=S`
Reply | 107

Ask | Would you mind doing `Cc1coc2c(C)c3oc(=O)c(CCC(=O)NCCc4ccccc4)c(C)c3cc12` as well?
Reply | 84

Ask | Param item: `CCOc1ccc(C(=O)c2cn(CC(=O)Nc3cc(OC)ccc3OC)c3cc(OC)c(OC)cc3c2=O)cc1`
Reply | 68

Ask | Same for `CCCNC(=O)CCSc1nc(-c2ccc3c(c2)OCO3)cc(C(F)(F)F)n1`
Reply | 84

Ask | Cool, now `CCC(=O)N1CCc2cc(S(=O)(=O)NCCC(=O)Nc3ccc(CC)cc3)ccc21`
Reply | 73

Ask | Continue with CC1CCCN(S(=O)(=O)c2ccc(S(=O)(=O)N(Cc3cccs3)Cc3cccs3)cc2)C1 (stereo unspecified)
Reply | 112

Ask | Then this compound: `CCOC(=O)c1c(NC(=O)c2cc(OCC)c(OCC)c(OCC)c2)sc2c1CCCCC2`
Reply | 83

Ask | Also, `CCOC(=O)Cc1c(C)nc2cc(C)nn2c1C` please.
Reply | 106

Ask | Proceed to `Cc1ccccc1Nc1c(-c2ccccc2)nc2cccc(C)n12`
Reply | 73

Ask | Follow-up item: `CCOC(=O)c1c(NC(=O)c2cc(Cl)ccc2Cl)sc2c1CCCC2`
Reply | 76

Ask | Next compound up: COc1ccc(C2CC(=O)c3cc(-c4nc(-c5cccc([N+](=O)[O-])c5)cs4)c(=O)n(-c4cc(C)cc(C)c4)c3C2)cc1 (stereo unspecified)
Reply | 80

Ask | How about `CCOC(=O)Cc1c(C)nc2cc(-c3ccc(C(C)(C)C)cc3)nn2c1C` ?
Reply | -2

Ask | Do the same for `O=S(=O)(Nc1ccc(-c2ccc(N3CCCC3)nn2)cc1)c1ccc(C(F)(F)F)cc1` please
Reply | 64

Ask | Further, for `CCOC(=O)c1c(NC(C)=O)sc2c1CCC2` ?
Reply | 104

Ask | Moving on to `O=C(CCn1cnc2onc(-c3ccc(F)cc3)c2c1=O)N1CCN(c2ccccc2)CC1`
Reply | 75

Ask | Then `CN(c1ncnc2c1c(-c1ccccc1)cn2-c1cccc(Cl)c1)C1CCCCC1` ?
Reply | 89

Ask | Subsequent entry: `O=C(/C=C(/O)c1cccnc1)C(F)(F)F`
Reply | 86

Ask | Then this compound: `Cc1ccc(S(=O)(=O)Nc2cccc(-c3ccc(N4CCC(C)CC4)nn3)c2)s1`
Reply | -3

Ask | And for `O=S(=O)(Nc1ccc(-c2ccc(N3CCCC3)nn2)cc1)c1ccc(OC(F)(F)F)cc1` ?
Reply | -6

Ask | Then `CCOC(=O)c1c(NC(=O)c2ccc(S(=O)(=O)N(CC)CC)cc2)sc2c1CCCCC2` ?
Reply | 80

Ask | Entry to check: `Cc1ccc(Nc2c(-c3ccc(O)cc3)nc3cccc(C)n23)cc1`
Reply | 91

Ask | Repeat with `CC(C)(C)NC(=O)CCSc1nc(-c2ccc3c(c2)OCO3)cc(C(F)(F)F)n1`
Reply | 4

Ask | Also need `CN(c1ncnc2onc(-c3cccc(Cl)c3)c12)C1CCCCC1` , thanks.
Reply | -1

Ask | // same read-out, input: `CC1CCN(c2ccc(-c3cccc(NS(=O)(=O)c4ccc(Cl)s4)c3)nn2)CC1`
Reply | 71

Ask | Proceed to `CCOC(=O)c1c(NC(=O)c2ccc(OCC)c(Br)c2)sc2c1CCCC2`
Reply | 67

Ask | Ok, now `Cc1ccc(Cl)cc1N1CCN(CCCNC(=O)Cn2ncc3c([nH]c4ccccc43)c2=O)CC1`
Reply | 99

Ask | Next compound up: `CCc1ccc(NC(=O)CN(c2cc(C)cc(C)c2)S(=O)(=O)c2c(C)[nH]c(=O)[nH]c2=O)cc1`
Reply | 68
